From: patent US8501946B2

Documented IC50 across a set of compounds
target: human recombinant P2X7 receptors (Homo sapiens, UniProt Q99572); construct: expressed in transfected cells; assay: Ethidium Accumulation Assay 1 (HEK293 cells, ATP-induced ethidium uptake); format: cell-based; conditions: HEK293 cells expressing human P2X7; 1 mM ATP; sometimes mean of more than one measurement; read-out: Assay 1 (antagonist pIC50 for blocking ATP responses) (converted)
Sequence (Q99572 whole entry): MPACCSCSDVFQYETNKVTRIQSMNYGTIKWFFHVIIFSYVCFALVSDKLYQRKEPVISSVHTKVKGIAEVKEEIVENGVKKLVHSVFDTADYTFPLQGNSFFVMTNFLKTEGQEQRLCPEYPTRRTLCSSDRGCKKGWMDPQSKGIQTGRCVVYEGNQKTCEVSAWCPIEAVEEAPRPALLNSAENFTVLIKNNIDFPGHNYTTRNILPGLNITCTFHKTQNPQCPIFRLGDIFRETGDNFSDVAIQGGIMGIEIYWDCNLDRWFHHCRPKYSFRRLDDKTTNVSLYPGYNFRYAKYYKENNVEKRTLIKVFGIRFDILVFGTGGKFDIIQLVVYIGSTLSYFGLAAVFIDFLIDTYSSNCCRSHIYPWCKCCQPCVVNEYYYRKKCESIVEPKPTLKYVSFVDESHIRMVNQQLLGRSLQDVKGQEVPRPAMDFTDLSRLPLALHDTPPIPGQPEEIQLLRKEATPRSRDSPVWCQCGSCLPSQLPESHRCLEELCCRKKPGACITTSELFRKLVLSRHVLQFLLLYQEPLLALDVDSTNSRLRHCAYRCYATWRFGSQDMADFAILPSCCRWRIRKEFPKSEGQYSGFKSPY
Observable: IC50

>>> reported_value("O=C(c1ccc(F)cc1Cl)N1CCn2c(nnc2-c2ncccn2)C1 [Example 47]")
"< 10 nM"
>>> reported_value("CCc1nnc2n1CCN(C(=O)c1cccc(Cl)c1Cl)C2 [Example 5]")
"< 100 nM"
>>> reported_value("O=C(c1ccc(Cl)c(F)c1Cl)N1CCn2c(nnc2-c2cnccn2)C1 [Example 111]")
"< 10 nM"
>>> reported_value("O=C(c1ccc(F)cc1Cl)N1CCn2c(nnc2-c2cccc3cccnc23)C1 [Example 129]")
"< 501 nM"
>>> reported_value("Cc1cc(-c2nnc3n2CCN(C(=O)c2cccc(C(F)(F)F)c2Cl)C3)no1 [Example 36]")
"< 100 nM"
>>> reported_value("Cc1ncccc1-c1nnc2n1CCN(C(=O)c1ccc(F)cc1Cl)C2 [Example 74]")
"< 501 nM"
>>> reported_value("Cn1cccc1-c1nnc2n1CCN(C(=O)c1cccc(C(F)(F)F)c1Cl)C2 [Example 29]")
"< 10 nM"
>>> reported_value("O=C(c1ccc(F)c(Cl)c1Cl)N1CCn2c(nnc2-c2cnccn2)C1 [Example 113]")
"< 10 nM"
>>> reported_value("O=C(c1ccc(Cl)cc1Cl)N1CCn2c(Br)nnc2C1 [Example 7]")
"< 501 nM"
